System: AGS cell strain
Measurement description: Cell growth test (CCK-8 assay) after transfection of BART miRNA mimics
Assay type: cell-based
Test conditions: mimic 10 nM, 72 hours after transfection, relative to scrambled control (=1), n=9
For each record, write down the corresponding Relative Cell Growth.
Give bare numbers.

# Substance, Tested system, Numeric result
measured = [
    ("BART2-5p: EBV BART miRNA mimic, double stranded RNA; sense SEQ NO: 85, antisense SEQ NO: 86 (sense UAUUUUCUGCAUUCGCCCUUGC; antisense GCAAGGGCGAAUGCAGAAAAUA; chemistry not given here)", "AGS cell strain", 1.085),
]

Go through the list and state Relative Cell Growth for each entry.
1. BART8-3p: EBV BART miRNA mimic, double stranded RNA; sense SEQ NO: 47, antisense SEQ NO: 48 (sense GUCACAAUCUAUGGGGUCGUAGA; antisense UCUACGACCCCAUAGAUUGUGAC; chemistry not given here)
2. BART16-3p: EBV BART miRNA mimic, double stranded RNA; sense SEQ NO: 23, antisense SEQ NO: 24 (sense AUCACCACCCUCUAUCCAUAU; antisense AUAUGGAUAGAGGGUGGUGAU; chemistry not given here)

Response:
[1.396, 1.159]

For each of the substances below, note its Relative Cell Growth.
1. BART9-3p: EBV BART miRNA mimic, double stranded RNA; sense SEQ NO: 51, antisense SEQ NO: 52 (sense UAACACUUCAUGGGUCCCGUAGU; antisense ACUACGGGACCCAUGAAGUGUUA; chemistry not given here)
2. BART20-3p: EBV BART miRNA mimic, double stranded RNA; sense SEQ NO: 75, antisense SEQ NO: 76 (sense CAUGAAGGCACAGCCUGUUACC; antisense GGUAACAGGCUGUGCCUUCAUG; chemistry not given here)

Response:
[1.569, 0.8577]

Value sought for every listed substance: Relative Cell Growth.
1. BART4-3p: EBV BART miRNA mimic, double stranded RNA; sense SEQ NO: 7, antisense SEQ NO: 8 (sense CACAUCACGUAGGCACCAGGUGU; antisense ACACCUGGUGCCUACGUGAUGUG; chemistry not given here)
2. BART7-3p: EBV BART miRNA mimic, double stranded RNA; sense SEQ NO: 43, antisense SEQ NO: 44 (sense CAUCAUAGUCCAGUGUCCAGGG; antisense CCCUGGACACUGGACUAUGAUG; chemistry not given here)

Response:
1.065
1.156

Batch: Relative Cell Growth for all items listed.
1. BART13-3p: EBV BART miRNA mimic, double stranded RNA; sense SEQ NO: 79, antisense SEQ NO: 80 (sense UGUAACUUGCCAGGGACGGCUGA; antisense UCAGCCGUCCCUGGCAAGUUACA; chemistry not given here)
2. BART6-3p: EBV BART miRNA mimic, double stranded RNA; sense SEQ NO: 31, antisense SEQ NO: 32 (sense CGGGGAUCGGACUAGCCUUAGA; antisense UCUAAGGCUAGUCCGAUCCCCG; chemistry not given here)
3. BART15-5p: EBV BART miRNA mimic, double stranded RNA; sense SEQ NO: 13, antisense SEQ NO: 14 (sense AGGGAAACAUGACCACCUGAAGUC; antisense GACUUCAGGUGGUCAUGUUUCCCU; chemistry not given here)
4. BART14-3p: EBV BART miRNA mimic, double stranded RNA; sense SEQ NO: 83, antisense SEQ NO: 84 (sense UAAAUGCUGCAGUAGUAGGGAU; antisense AUCCCUACUACUGCAGCAUUUA; chemistry not given here)
5. BART11-3p: EBV BART miRNA mimic, double stranded RNA; probably sense SEQ NO: 63, antisense SEQ NO: 64 (printed as BART11-5p) (sense ACGCACACCAGGCUGACUGCC; antisense GGCAGUCAGCCUGGUGUGCGU; chemistry not given here)

Response:
1.255
0.9101
0.9545
1.447
0.9459

====

Test system: AGS cell strain
Measurement description: Cell growth test (CCK-8 assay) after transfection of BART miRNA mimics
Format: cell-based
Test conditions: mimic 10 nM, 72 hours after transfection, relative to scrambled control (=1), n=9
Field: Relative Cell Growth. Provide a value for each of the substances that follow.
Give bare numbers.

Solved entries:
# Substance, Numeric result
data = [
    ("BART9-5p: EBV BART miRNA mimic, double stranded RNA; sense SEQ NO: 49, antisense SEQ NO: 50 (sense UACUGGACCCUGAAUUGGAAAC; antisense GUUUCCAAUUCAGGGUCCAGUA; chemistry not given here)", 1.482),
    ("BART16-5p: EBV BART miRNA mimic, double stranded RNA; sense SEQ NO: 21, antisense SEQ NO: 22 (sense UUAGAUAGAGUGGGUGUGUGCUCU; antisense AGAGCACACACCCACUCUAUCUAA; chemistry not given here)", 0.705),
    ("BART17-3p: EBV BART miRNA mimic, double stranded RNA; sense SEQ NO: 27, antisense SEQ NO: 28 (sense UGUAUGCCUGGUGUCCCCUUAGU; antisense ACUAAGGGGACACCAGGCAUACA; chemistry not given here)", 0.7865),
    ("BART19-5p: EBV BART miRNA mimic, double stranded RNA; sense SEQ NO: 69, antisense SEQ NO: 70 (sense ACAUUCCCCGCAAACAUGACAUG; antisense CAUGUCAUGUUUGCGGGGAAUGU; chemistry not given here)", 1.151),
    ("BART6-5p: EBV BART miRNA mimic, double stranded RNA; sense SEQ NO: 29, antisense SEQ NO: 30 (sense UAAGGUUGGUCCAAUCCAUAGG; antisense CCUAUGGAUUGGACCAACCUUA; chemistry not given here)", 0.881),
]

Hey, can you go through the list below and give me Relative Cell Growth for every item?
1. BART13-5p: EBV BART miRNA mimic, double stranded RNA; sense SEQ NO: 77, antisense SEQ NO: 78 (sense AACCGGCUCGUGGCUCGUACAG; antisense CUGUACGAGCCACGAGCCGGUU; chemistry not given here)
2. BART5-3p: EBV BART miRNA mimic, double stranded RNA; sense SEQ NO: 19, antisense SEQ NO: 20 (sense GUGGGCCGCUGUUCACCU; antisense AGGUGAACAGCGGCCCAC; chemistry not given here)
3. BART18-3p: EBV BART miRNA mimic, double stranded RNA; sense SEQ NO: 39, antisense SEQ NO: 40 (sense UAUCGGAAGUUUGGGCUUCGUC; antisense GACGAAGCCCAAACUUCCGAUA; chemistry not given here)

Response:
[1.326, 0.9583, 1.393]

====

So I've got a bunch of substances here, and I need their Relative Apoptotic cell values.
System: AGS cell strain
Measurement description: Measurement of apoptosis (Annexin V staining, FACS)
Format: cell-based
Test conditions: AGS; mimic 10 nM, 10 uM 5-FU 24 h after transfection, then 48 hours; Annexin V; relative to scrambled control (=1); n=9
Numbers only.

# Substance, Relative Apoptotic cell
data = [
    ("BART10-3p: EBV BART miRNA mimic, double stranded RNA; sense SEQ NO: 59, antisense SEQ NO: 60 (sense UACAUAACCAUGGAGUUGGCUGU; antisense ACAGCCAACUCCAUGGUUAUGUA; chemistry not given here)", 0.8971),
]

Each of the following entries comes with a recorded value; kindly state Relative Apoptotic cell for each.
1. BART22-3p: EBV BART miRNA mimic, double stranded RNA; sense SEQ NO: 55, antisense SEQ NO: 56 (sense UUACAAAGUCAUGGUCUAGUAGU; antisense ACUACUAGACCAUGACUUUGUAA; chemistry not given here)
2. BART13-5p: EBV BART miRNA mimic, double stranded RNA; sense SEQ NO: 77, antisense SEQ NO: 78 (sense AACCGGCUCGUGGCUCGUACAG; antisense CUGUACGAGCCACGAGCCGGUU; chemistry not given here)

Response:
[1.106, 1.077]

Query: What value of Relative Apoptotic cell has been reported for the following substance? BART8-5p: EBV BART miRNA mimic, double stranded RNA; sense SEQ NO: 45, antisense SEQ NO: 46 (sense UACGGUUUCCUAGAUUGUACAG; antisense CUGUACAAUCUAGGAAACCGUA; chemistry not given here)
Response: 0.9757

====

Assign Relative Apoptotic cell to each entry below.
System: AGS cell strain
Measurement description: Measurement of apoptosis (Annexin V staining, FACS)
Assay type: cell-based
Test conditions: AGS; mimic 10 nM, 10 uM 5-FU 24 h after transfection, then 48 hours; Annexin V; relative to scrambled control (=1); n=9
Give bare numbers.

# Substance, Relative Apoptotic cell
records = [
    ("BART18-5p: EBV BART miRNA mimic, double stranded RNA; sense SEQ NO: 37, antisense SEQ NO: 38 (sense UCAAGUUCGCACUUCCUAUACA; antisense UGUAUAGGAAGUGCGAACUUGA; chemistry not given here)", 1.202),
    ("BART18-3p: EBV BART miRNA mimic, double stranded RNA; sense SEQ NO: 39, antisense SEQ NO: 40 (sense UAUCGGAAGUUUGGGCUUCGUC; antisense GACGAAGCCCAAACUUCCGAUA; chemistry not given here)", 0.8705),
    ("BART12-5p: EBV BART miRNA mimic, double stranded RNA; sense SEQ NO: 65, antisense SEQ NO: 66 (sense ACCCGCCCAUCACCACCGGAC; antisense GUCCGGUGGUGAUGGGCGGGU; chemistry not given here)", 0.9458),
    ("BART3-5p: EBV BART miRNA mimic, double stranded RNA; sense SEQ NO: 1, antisense SEQ NO: 2 (sense ACCUAGUGUUAGUGUUGUGCU; antisense AGCACAACACUAACACUAGGU; chemistry not given here)", 1.016),
    ("BART7-3p: EBV BART miRNA mimic, double stranded RNA; sense SEQ NO: 43, antisense SEQ NO: 44 (sense CAUCAUAGUCCAGUGUCCAGGG; antisense CCCUGGACACUGGACUAUGAUG; chemistry not given here)", 1.107),
]

Hello, I would appreciate it if you could give Relative Apoptotic cell for each entry below.
1. BART21-5p: EBV BART miRNA mimic, double stranded RNA; sense SEQ NO: 33, antisense SEQ NO: 34 (sense UCACUAGUGAAGGCAACUAAC; antisense GUUAGUUGCCUUCACUAGUGA; chemistry not given here)
2. BART21-3p: EBV BART miRNA mimic, double stranded RNA; sense SEQ NO: 35, antisense SEQ NO: 36 (sense CUAGUUGUGCCCACUGGUGUUU; antisense AAACACCAGUGGGCACAACUAG; chemistry not given here)
3. BART9-3p: EBV BART miRNA mimic, double stranded RNA; sense SEQ NO: 51, antisense SEQ NO: 52 (sense UAACACUUCAUGGGUCCCGUAGU; antisense ACUACGGGACCCAUGAAGUGUUA; chemistry not given here)
4. BART17-5p: EBV BART miRNA mimic, double stranded RNA; sense SEQ NO: 25, antisense SEQ NO: 26 (sense UAAGAGGACGCAGGCAUACAAG; antisense CUUGUAUGCCUGCGUCCUCUUA; chemistry not given here)
5. BART17-3p: EBV BART miRNA mimic, double stranded RNA; sense SEQ NO: 27, antisense SEQ NO: 28 (sense UGUAUGCCUGGUGUCCCCUUAGU; antisense ACUAAGGGGACACCAGGCAUACA; chemistry not given here)
6. BART15-5p: EBV BART miRNA mimic, double stranded RNA; sense SEQ NO: 13, antisense SEQ NO: 14 (sense AGGGAAACAUGACCACCUGAAGUC; antisense GACUUCAGGUGGUCAUGUUUCCCU; chemistry not given here)
7. BART22-5p: EBV BART miRNA mimic, double stranded RNA; sense SEQ NO: 53, antisense SEQ NO: 54 (sense UGCUAGACCCUGGAGUUGAACC; antisense GGUUCAACUCCAGGGUCUAGCA; chemistry not given here)
8. BART19-5p: EBV BART miRNA mimic, double stranded RNA; sense SEQ NO: 69, antisense SEQ NO: 70 (sense ACAUUCCCCGCAAACAUGACAUG; antisense CAUGUCAUGUUUGCGGGGAAUGU; chemistry not given here)

Response:
1: 0.9207; 2: 1.155; 3: 0.7948; 4: 1.004; 5: 1.088; 6: 1.022; 7: 1.197; 8: 1.071

Hi team, please reply with Relative Apoptotic cell for each item in this list.
1. BART8-3p: EBV BART miRNA mimic, double stranded RNA; sense SEQ NO: 47, antisense SEQ NO: 48 (sense GUCACAAUCUAUGGGGUCGUAGA; antisense UCUACGACCCCAUAGAUUGUGAC; chemistry not given here)
2. BART5-5p: EBV BART miRNA mimic, double stranded RNA; sense SEQ NO: 17, antisense SEQ NO: 18 (sense CAAGGUGAAUAUAGCUGCCCAUCG; antisense CGAUGGGCAGCUAUAUUCACCUUG; chemistry not given here)

Response:
[1.072, 1.325]
